test system: Raf-1^gof intestinal tumors; assay: Luciferase screen of FDA-approved (NCI) drugs in 96-well plates, flies with Raf-1^gof intestinal tumors; assay type: in vivo, Drosophila; conditions: log2 of the Day 3 fold difference in luciferase relative to DMSO controls; as to Log2 (fold): test concentration or dose not given here
Measured Log2 (fold) accompanies every entry in the list below.
Just the number, please, no unit attached.

{"columns": ["COMPOUND", "MEASUREMENT TYPE", "NUMERIC VALUE"],
 "data": [
  ["O=C(CCBr)N1CCN(C(=O)CCBr)CC1", "Log2 (fold)", "−0.011"]
]}

For COc1cc([C@@H]2c3cc4c(cc3[C@@H](O[C@@H]3O[C@@H]5CO[C@@H](C)O[C@H]5[C@H](O)[C@H]3O)[C@H]3COC(=O)[C@H]23)OCO4)cc(OC)c1O [Etoposide] , what is its reported Log2 (fold)?
−0.134

Do the same for O=c1[nH]cc(F)c(=O)[nH]1 please
−0.448

Param item: NCC(=O)CCC(=O)O
−0.016

Would you mind doing C=C1C[C@@H]2[C@H](CC[C@]3(C)C(=O)CC[C@@H]23)[C@@]2(C)C=CC(=O)C=C12 as well?
−0.246

One more compound: O=C1CCC(N2C(=O)c3ccccc3C2=O)C(=O)N1 (centres unmarked) [Thalidomide]
0.136

----------
As shown below, each of these compounds has a reported Fold (luciferase activity relative to DMSO controls) value.
test system: Raf-1^gof intestinal tumors; conditions: in vivo
Give the number; fold is assumed, so skip it.

{"columns": ["COMPOUND", "NUMERIC VALUE"],
 "data": [
  ["CC(=O)N[C@@H](CSC/C=C(\\C)CC/C=C(\\C)CC/C=C(\\C)CCC=C(C)C)C(=O)O", 1.001],
  ["C=C1C(=O)O[C@@H]2C[C@@H](C)[C@@H]3C=CC(=O)[C@@]3(C)[C@@H](O)[C@H]12", 1.112],
  ["C[S+]([O-])c1ccc(-c2nc(-c3ccc(F)cc3)c(-c3ccncc3)[nH]2)cc1 (stereo not shown)", 1.036]
]}

// below: Fold (luciferase activity relative to DMSO controls) requested for another compound
Given CCCCC[C@H](O)C/C=C1/C(=O)C=C[C@@H]1C/C=C\CCCC(=O)O , state its recorded Fold (luciferase activity relative to DMSO controls).
0.988

----------
tested on: Raf-1^gof intestinal tumors; conditions: screen of 480 ICCB compounds in vials; compounds fed to flies with one-day old Raf-1^gof tumors, assessed three days later; esg-Gal4 luciferase
Numbered stars: 1 amine (or outer) side, 2 acyl side, 3 side chain; on linkers, the order of the positions; unused ones are H or OH. Bridge positions count the residues as written; N and C are the ends. Square brackets hold non-standard residues; d marks the D form. Peptide text beside a SMILES is read from it. I, II: the chains in the order shown. Actinocin(9to1) = Cc1c2oc3c(C)ccc(C(=O)[*:1])c3nc-2c(C(=O)[*:2])c(N)c1=O; NMeV = CN[C@H](C(=O)O)C(C)C; Sar = CNCC(=O)O
Rule: Log2 (fold) (luciferase activity, log2 of the fold difference relative to DMSO controls) of -0.4 or more gives 1; anything lower gives 0.

{"columns": ["COMPOUND", "TARGET ENTITY", "GROUP LABEL"],
 "data": [
  ["OCCN(CCO)c1nc(N2CCCCC2)c2nc(N(CCO)CCO)nc(N3CCCCC3)c2n1", "Raf-1^gof intestinal tumors", 0],
  ["COc1ccc(Cl)cc1C(=O)NCCc1ccc(S(=O)(=O)NC(=O)NC2CCCCC2)cc1 [GLYBURIDE]", "Raf-1^gof intestinal tumors", 1],
  ["CS(=O)(=O)Nc1ccc([N+](=O)[O-])cc1OC1CCCCC1", "Raf-1^gof intestinal tumors", 0],
  ["CCCCC/C=C\\C/C=C\\C/C=C\\C/C=C\\CCCCCC(=O)O", "Raf-1^gof intestinal tumors", 1],
  ["C=C(C)[C@@H]1CC[C@]2(C(=O)O)CC[C@]3(C)[C@H](CC[C@@H]4[C@@]5(C)CC[C@H](O)C(C)(C)[C@@H]5CC[C@]43C)[C@@H]12", "Raf-1^gof intestinal tumors", 0]
]}

# bool: Log2 (fold) (luciferase activity, log2 of the fold difference relative to DMSO controls) of Cc1c2oc3c(C)ccc(C(=O)N[C@@H]4C(=O)N[C@H](C(C)C)C(=O)N5CCC[C@H]5C(=O)N(C)CC(=O)N(C)[C@@H](C(C)C)C(=O)O[C@@H]4C)c3nc-2c(C(=O)N[C@@H]2C(=O)N[C@H](C(C)C)C(=O)N3CCC[C@H]3C(=O)N(C)CC(=O)N(C)[C@@H](C(C)C)C(=O)O[C@@H]2C)c(N)c1=O [Dactinomycin] (I: T[dV]P[Sar][NMeV] / II: T[dV]P[Sar][NMeV]; ester I:1-I:C, II:1-II:C; linker I:N-II:N via Actinocin(9to1)) >= -0.4
0

Then what about the compound CCCCC[C@H](O)/C=C/[C@@H]1[C@@H](C/C=C\CCCC(=O)O)[C@@H](O)C[C@@H]1O [9a,11b-PROSTAGLANDIN F2] ?
1

# iterate: COC(=O)C1=C(C)NC(C)=C(C(=O)OC)C1c1ccccc1[N+](=O)[O-]
0

Next compound up: COc1ccc2c(c1)CC[C@@H]1[C@@H]2CC[C@]2(C)[C@@H](NCCCCCCN3C(=O)C=CC3=O)CC[C@@H]12
0

What about this compound? O=C(O)CNC(=O)C(CS)Cc1ccccc1 (stereo not drawn)
0

Would you mind doing CC1=C(/C=C/C(C)=C\C=C\C(C)=C\C(=O)O)C(C)(C)CCC1 [9-CIS RETINOIC ACID] as well?
0

Note, next up: CCCCC/C=C\C/C=C\C/C=C\C/C=C\CCCC(=O)NCc1ccc(O)c(OC)c1
0

And the next one, COC1=C2C[C@@H](C)C[C@H](OC)[C@H](O)[C@@H](C)/C=C(\C)[C@H](OC(N)=O)[C@@H](OC)/C=C\C=C(/C)C(=O)NC(=CC1=O)C2=O ?
0

And for CC1=C(CC/C(C)=C/CCC2=CC[C@H](C3=CC(=O)O[C@H]3O)O[C@H]2O)C(C)(C)CCC1 [Manoalide] ?
0

Same question for Cc1ccc(S(=O)(=O)/C=C/C#N)cc1 please.
0

Can you check COc1cc([C@@H]2c3cc4c(cc3[C@@H](O[C@@H]3O[C@@H]5CO[C@@H](C)O[C@H]5[C@H](O)[C@H]3O)[C@H]3COC(=O)[C@H]23)OCO4)cc(OC)c1O [Etoposide] next?
0

Queued: O=c1[nH]c2ccccc2n1C1CCN(CCCC(c2ccc(F)cc2)c2ccc(F)cc2)CC1 [PIMOZIDE]
0

# repeat for CCCC[C@@H](C=O)NC(=O)[C@H](CC(C)C)NC(=O)OCc1ccccc1
1

Another compound to look at: CCCC(=O)Nc1nc2c(ncn2C2O[C@H]3COP(=O)(O)O[C@@H]3[C@@H]2OC(=O)CCC)c(=O)[nH]1 (stereo partly drawn)
1

Next record, please: CCCCCCCCCCCCCCC[C@@H](O)[C@H](CO)NC(C)=O [C2 DIHYDROCERAMIDE]
0

----------
tested on: Raf-1^gof intestinal tumors; assay: Luciferase screen of FDA-approved (NCI) drugs in 96-well plates, flies with Raf-1^gof intestinal tumors; type: in vivo, Drosophila; conditions: six-day protocol: single dose for three days, then another dose for three more days
Counter-ions that a name gives are not always drawn.
Quick reference for Day 6 Fold among some molecules
Numbers only; they are read as fold.

Example molecules with recorded Day 6 Fold:
{"columns": ["MOLECULE", "MEASUREMENT TYPE", "NUMERIC VALUE"],
 "data": [
  ["O=c1[nH]cc(F)c(=O)[nH]1 [Fluorouracil]", "Day 6 Fold", 0.806],
  ["CC[C@@]1(O)C(=O)OCc2c1cc1n(c2=O)Cc2cc3c(CN(C)C)c(O)ccc3nc2-1 [Topotecan HCl]", "Day 6 Fold", 0.137],
  ["COc1c2occc2cc2ccc(=O)oc12 [Methoxsalen]", "Day 6 Fold", 0.866],
  ["CCCCC(=O)OCC(=O)[C@]1(O)Cc2c(O)c3c(c(O)c2[C@@H](O[C@H]2C[C@H](NC(=O)C(F)(F)F)[C@H](O)[C@H](C)O2)C1)C(=O)c1c(OC)cccc1C3=O [Valrubicin]", "Day 6 Fold", 0.679],
  ["CC1=C(/C=C/C(C)=C/C=C/C(C)=C/C(=O)O)C(C)(C)CCC1 [Tretinoin]", "Day 6 Fold", 0.769]
]}

// returns reported Day 6 Fold for input NCC(=O)CCC(=O)O [Aminolevulinic acid]
0.805

Repeat for the following molecule: Nc1nc2[nH]cc(CCc3ccc(C(=O)N[C@@H](CCC(=O)O)C(=O)O)cc3)c2c(=O)[nH]1 [Pemetrexed]
0.149

Here is the next molecule: CCC1=C[C@@H]2CN(C1)Cc1c([nH]c3ccccc13)[C@@](C(=O)OC)(c1cc3c(cc1OC)N(C)[C@H]1[C@@](O)(C(=O)OC)[C@H](OC(C)=O)[C@]4(CC)C=CCN5CC[C@]31[C@@H]54)C2 [Vinorelbine tartrate]
0.645

Next up: Nc1ncn([C@H]2C[C@H](O)[C@@H](CO)O2)c(=O)n1 [Decitabine]
0.663

Then O=C1[O][Pt]2([NH][C@@H]3CCCC[C@H]3[NH]2)[O]C1=O [Oxaliplatin] ?
0.936
